Tested on: Colon cancer organoid
experimentDescription: Identification of compartment-specific drug sensitivities in O20 CRC organoid-stroma F20 CAF co-cultures. Organoid is transduced with Lucferase2-P2A-EGFP lentivirus, fibroblast with Renilla-dsRed lentivirus. Dual-Glo Luciferase assay is used to report viability data.
Type: functional, Homo sapiens
Set-up: dose or concentration left out as unconfirmed
measurementParameters: Transduced with Renilla-dsRed lentivirus
Below: a set of entries, each annotated with reported Cell Viability.

{"compound": "CC1=C(C#N)C(c2ccc3[nH]nc(C)c3c2)C(C#N)=C(C)N1", "Cell Viability (%)": 102.241}
{"compound": "Cl.O=C([C@@H](Cc1cccc(C(F)(F)F)c1)NS(=O)(=O)c1cc(F)c2c(c1)CCNC2)N1CCCC1", "Cell Viability (%)": 150.248}
{"compound": "O[C@H]1CC[C@H](Nc2ncc3nc(Nc4c(F)cc(F)cc4F)n([C@H]4CCOC4)c3n2)CC1", "Cell Viability (%)": 97.8883}
{"compound": "COc1ccccc1S(=O)(=O)Nc1ccc2c(c1)CN(C)C(=O)N2", "Cell Viability (%)": 99.8859}
{"compound": "O=C(NCc1ccccc1)c1ccc(S(=O)(=O)NCc2ccccc2)cc1", "Cell Viability (%)": 96.8328}
{"compound": "Cn1cc(-c2ccc3occ(-c4ccccc4-c4ccccc4)c3n2)cn1", "Cell Viability (%)": 89.3741}
{"compound": "CNC(=O)c1cc(C(=O)N[C@H]2[C@@H]3COC[C@@H]32)cc2c1O[C@@H](CF)[C@@H]2c1ccccc1", "Cell Viability (%)": 108.354}
{"compound": "CN(C)C(=O)N1CC[C@H](NC2=Nc3cc(F)ccc3N(CC(F)F)c3ccc(Cl)cc32)C1", "Cell Viability (%)": 98.2431}
{"compound": "O=C(O)CNC(=O)c1c(O)c2ccccc2n(Cc2ccccc2)c1=O", "Cell Viability (%)": 149.859}
{"compound": "Cc1cccc(-c2cnc3occ(-c4ccc(C(=O)O)c(C5CCCC5)c4)c3c2)c1", "Cell Viability (%)": 133.429}
{"compound": "COc1cc(N(C)c2ccnc3ccc(C(F)(F)F)cc23)cc(OC)c1OC", "Cell Viability (%)": 110.267}
{"compound": "CN(C)C(=O)Cn1cc(-c2nc(C3(c4ccc(-c5cnc(N)nc5)cc4)CC3)no2)cn1", "Cell Viability (%)": 91.9766}
{"compound": "C[C@H]1CCCN1Cc1nc2cc(NC(=O)c3ccc4cnccc4c3)ccc2[nH]1", "Cell Viability (%)": 149.477}
{"compound": "Nc1ncnc2c1ccn2[C@@H]1O[C@H]([C@H](O)c2ccccc2)[C@@H](O)[C@H]1O", "Cell Viability (%)": 179.519}
{"compound": "Cc1sc2c(c1C)C(c1ccc(Cl)cc1)=N[C@@H](CC(=O)OC(C)(C)C)c1nnc(C)n1-2", "Cell Viability (%)": 145.881}
{"compound": "CN([C@@H]1CCc2c(CC(=O)O)c3cc(S(C)(=O)=O)ccc3n2C1)S(=O)(=O)c1ccc(F)cc1 [CRTH2-negative-control]", "Cell Viability (%)": 126.69}
{"compound": "CC(=O)c1cc(-c2cc(C(=O)NC3CC3)ccc2C)c2ncccn12", "Cell Viability (%)": 121.421}
{"compound": "C[C@@H]1CCc2ncc(F)cc2[C@H]2CCCN2c2ccn3ncc(c3n2)C(=O)N1", "Cell Viability (%)": 73.3915}
